Entries and their inhibition values follow.
molecular target: Tyrosine-protein kinase ITK/TSK (Homo sapiens); test: Inhibition of human full-length N-terminal GST-fused ITK (2 to 620 (end)residues) expressed in baculovirus expression system at 20 uM measured after 1 hr in presence of peptide substrate and ATP by off-chip mobility shift assay relative to control
Parameter measured: inhibition (%)

[[record]]
structure_string = "O=C(CN1C(=O)/C(=N\\NC(=O)c2cc(Br)ccc2O)c2c(Br)cccc21)Nc1ccc([N+](=O)[O-])cc1"
numeric_result = 56.7

[[record]]
structure_string = "Cc1ccc(NC(=O)CN2C(=O)/C(=N\\NC(=O)c3cc(Br)ccc3O)c3ccc(Br)cc32)cc1"
numeric_result = 52.8

[[record]]
structure_string = "Cc1ccc(NC(=O)CN2C(=O)/C(=N\\NC(=O)c3cc(Br)ccc3O)c3ccc(Cl)cc32)cc1"
numeric_result = 58.9

[[record]]
structure_string = "Cc1ccc(NC(=O)CN2C(=O)/C(=N\\NC(=O)c3cc(Br)ccc3O)c3ccccc32)cc1"
numeric_result = 70.3


----------
molecular target: UniProt P35968; test: Inhibition of human N-terminal GST-fused KDR cytoplasmic domain (790 to 1356 (end)residues) expressed in baculovirus expression system at 20 uM measured after 1 hr in presence of peptide substrate and ATP by off-chip mobility shift assay relative to control
Sequence (P35968 whole entry, the tested form may be a part): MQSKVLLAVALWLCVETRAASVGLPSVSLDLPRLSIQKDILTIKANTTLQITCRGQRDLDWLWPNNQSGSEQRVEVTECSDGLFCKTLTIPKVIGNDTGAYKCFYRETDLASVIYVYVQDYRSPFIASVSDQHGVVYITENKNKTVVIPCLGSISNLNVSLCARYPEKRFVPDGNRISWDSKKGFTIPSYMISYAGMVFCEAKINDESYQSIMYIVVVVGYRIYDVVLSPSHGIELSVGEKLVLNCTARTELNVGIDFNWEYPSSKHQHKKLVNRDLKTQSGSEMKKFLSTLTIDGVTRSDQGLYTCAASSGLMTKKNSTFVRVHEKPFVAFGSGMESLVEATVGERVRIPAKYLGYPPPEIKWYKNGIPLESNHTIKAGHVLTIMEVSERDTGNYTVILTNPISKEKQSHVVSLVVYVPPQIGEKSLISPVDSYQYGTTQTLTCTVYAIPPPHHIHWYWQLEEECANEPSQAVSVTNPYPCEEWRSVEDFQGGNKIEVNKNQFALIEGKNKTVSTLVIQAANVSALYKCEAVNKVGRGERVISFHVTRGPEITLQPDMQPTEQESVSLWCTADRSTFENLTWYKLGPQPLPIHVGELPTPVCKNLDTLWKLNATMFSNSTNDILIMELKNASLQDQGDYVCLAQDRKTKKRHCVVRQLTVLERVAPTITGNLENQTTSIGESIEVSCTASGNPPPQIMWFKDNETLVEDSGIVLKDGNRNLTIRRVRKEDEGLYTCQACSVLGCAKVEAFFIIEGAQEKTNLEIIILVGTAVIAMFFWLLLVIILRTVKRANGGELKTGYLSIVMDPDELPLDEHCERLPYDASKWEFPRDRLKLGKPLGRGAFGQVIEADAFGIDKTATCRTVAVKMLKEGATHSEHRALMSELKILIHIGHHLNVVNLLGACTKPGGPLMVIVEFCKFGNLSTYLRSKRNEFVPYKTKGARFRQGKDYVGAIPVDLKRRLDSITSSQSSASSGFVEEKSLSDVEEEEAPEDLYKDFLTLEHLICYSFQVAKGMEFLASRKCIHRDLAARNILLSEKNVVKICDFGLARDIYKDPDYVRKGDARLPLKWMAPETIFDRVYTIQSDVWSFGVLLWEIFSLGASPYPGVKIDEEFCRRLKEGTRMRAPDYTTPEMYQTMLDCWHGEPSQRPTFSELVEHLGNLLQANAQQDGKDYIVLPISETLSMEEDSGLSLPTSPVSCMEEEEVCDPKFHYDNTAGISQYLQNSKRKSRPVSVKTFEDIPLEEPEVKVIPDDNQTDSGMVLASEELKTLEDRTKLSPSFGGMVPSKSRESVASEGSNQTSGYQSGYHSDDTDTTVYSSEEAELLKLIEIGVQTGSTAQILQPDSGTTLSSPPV
Catalogue of inhibition readings, one per entry.
Parameter measured: inhibition (%)

[[record]]
structure_string = "Cc1ccc(NC(=O)CN2C(=O)/C(=N\\NC(=O)c3cc(Br)ccc3O)c3ccccc32)cc1"
parameter_measured = "inhibition"
numeric_result = 81.4

[[record]]
structure_string = "O=C(CN1C(=O)/C(=N\\NC(=O)c2cc(Br)ccc2O)c2c(Br)cccc21)Nc1ccc([N+](=O)[O-])cc1"
parameter_measured = "inhibition"
numeric_result = 61.2

[[record]]
structure_string = "Cc1ccc(NC(=O)CN2C(=O)/C(=N\\NC(=O)c3cc(Br)ccc3O)c3ccc(Cl)cc32)cc1"
parameter_measured = "inhibition"
numeric_result = 66.6

[[record]]
structure_string = "Cc1ccc(NC(=O)CN2C(=O)/C(=N\\NC(=O)c3cc(Br)ccc3O)c3ccc(Br)cc32)cc1"
parameter_measured = "inhibition"
numeric_result = 63.5


----------
inhibition values, listed per item
target: Tyrosine-protein kinase SYK (Homo sapiens); experiment: Inhibition of human full-length N-terminal GST-fused SYK (1 to 635 (end)residues) expressed in baculovirus expression system at 20 uM measured after 1 hr in presence of peptide substrate and ATP by off-chip mobility shift assay relative to control
Parameter measured: inhibition (%)

[[record]]
structure_string = "Cc1ccc(NC(=O)CN2C(=O)/C(=N\\NC(=O)c3cc(Br)ccc3O)c3ccc(Br)cc32)cc1"
system = "Tyrosine-protein kinase SYK (Homo sapiens)"
parameter_measured = "inhibition"
readout_unit = "%"
numeric_result = 54.1

[[record]]
structure_string = "Cc1ccc(NC(=O)CN2C(=O)/C(=N\\NC(=O)c3cc(Br)ccc3O)c3ccccc32)cc1"
system = "Tyrosine-protein kinase SYK (Homo sapiens)"
parameter_measured = "inhibition"
readout_unit = "%"
numeric_result = 91.9

[[record]]
structure_string = "Cc1ccc(NC(=O)CN2C(=O)/C(=N\\NC(=O)c3cc(Br)ccc3O)c3ccc(Cl)cc32)cc1"
system = "Tyrosine-protein kinase SYK (Homo sapiens)"
parameter_measured = "inhibition"
readout_unit = "%"
numeric_result = 49.4

[[record]]
structure_string = "O=C(CN1C(=O)/C(=N\\NC(=O)c2cc(Br)ccc2O)c2c(Br)cccc21)Nc1ccc([N+](=O)[O-])cc1"
system = "Tyrosine-protein kinase SYK (Homo sapiens)"
parameter_measured = "inhibition"
readout_unit = "%"
numeric_result = 89.7


----------
Catalogue of inhibition readings, one per entry.
target: Insulin-like growth factor 1 receptor (Homo sapiens); experiment: Inhibition of human N-terminal GST-fused IGF1R cytoplasmic domain (959 to 1367 (end)residues) expressed in baculovirus expression system at 20 uM measured after 1 hr in presence of peptide substrate and ATP by off-chip mobility shift assay relative to control
Parameter measured: inhibition (%)

[[record]]
structure_string = "O=C(CN1C(=O)/C(=N\\NC(=O)c2cc(Br)ccc2O)c2c(Br)cccc21)Nc1ccc([N+](=O)[O-])cc1"
parameter_measured = "inhibition"
numeric_result = 66

[[record]]
structure_string = "Cc1ccc(NC(=O)CN2C(=O)/C(=N\\NC(=O)c3cc(Br)ccc3O)c3ccccc32)cc1"
parameter_measured = "inhibition"
numeric_result = 80.2

[[record]]
structure_string = "Cc1ccc(NC(=O)CN2C(=O)/C(=N\\NC(=O)c3cc(Br)ccc3O)c3ccc(Cl)cc32)cc1"
parameter_measured = "inhibition"
numeric_result = 55.3

[[record]]
structure_string = "Cc1ccc(NC(=O)CN2C(=O)/C(=N\\NC(=O)c3cc(Br)ccc3O)c3ccc(Br)cc32)cc1"
parameter_measured = "inhibition"
numeric_result = 54


----------
# inhibition per record follows
molecular target: Tyrosine-protein kinase CSK (Homo sapiens); test: Inhibition of human full-length N-terminal GST-fused CSK (1 to 450 (end)residues) expressed in baculovirus expression system at 20 uM measured after 1 hr in presence of peptide substrate and ATP by off-chip mobility shift assay relative to control
Parameter measured: inhibition (%)

[[record]]
structure_string = "O=C(CN1C(=O)/C(=N\\NC(=O)c2cc(Br)ccc2O)c2c(Br)cccc21)Nc1ccc([N+](=O)[O-])cc1"
numeric_result = 82.9

[[record]]
structure_string = "Cc1ccc(NC(=O)CN2C(=O)/C(=N\\NC(=O)c3cc(Br)ccc3O)c3ccc(Br)cc32)cc1"
numeric_result = 86.1

[[record]]
structure_string = "Cc1ccc(NC(=O)CN2C(=O)/C(=N\\NC(=O)c3cc(Br)ccc3O)c3ccc(Cl)cc32)cc1"
numeric_result = 82.1

[[record]]
structure_string = "Cc1ccc(NC(=O)CN2C(=O)/C(=N\\NC(=O)c3cc(Br)ccc3O)c3ccccc32)cc1"
numeric_result = 93.5


----------
target: UniProt Q06418; experiment: Inhibition of human N-terminal GST-fused TYRO3 cytoplasmic domain (453 to 890 (end)residues) expressed in baculovirus expression system at 20 uM measured after 1 hr in presence of peptide substrate and ATP by off-chip mobility shift assay relative to control
Sequence (Q06418 whole entry, the tested form may be a part): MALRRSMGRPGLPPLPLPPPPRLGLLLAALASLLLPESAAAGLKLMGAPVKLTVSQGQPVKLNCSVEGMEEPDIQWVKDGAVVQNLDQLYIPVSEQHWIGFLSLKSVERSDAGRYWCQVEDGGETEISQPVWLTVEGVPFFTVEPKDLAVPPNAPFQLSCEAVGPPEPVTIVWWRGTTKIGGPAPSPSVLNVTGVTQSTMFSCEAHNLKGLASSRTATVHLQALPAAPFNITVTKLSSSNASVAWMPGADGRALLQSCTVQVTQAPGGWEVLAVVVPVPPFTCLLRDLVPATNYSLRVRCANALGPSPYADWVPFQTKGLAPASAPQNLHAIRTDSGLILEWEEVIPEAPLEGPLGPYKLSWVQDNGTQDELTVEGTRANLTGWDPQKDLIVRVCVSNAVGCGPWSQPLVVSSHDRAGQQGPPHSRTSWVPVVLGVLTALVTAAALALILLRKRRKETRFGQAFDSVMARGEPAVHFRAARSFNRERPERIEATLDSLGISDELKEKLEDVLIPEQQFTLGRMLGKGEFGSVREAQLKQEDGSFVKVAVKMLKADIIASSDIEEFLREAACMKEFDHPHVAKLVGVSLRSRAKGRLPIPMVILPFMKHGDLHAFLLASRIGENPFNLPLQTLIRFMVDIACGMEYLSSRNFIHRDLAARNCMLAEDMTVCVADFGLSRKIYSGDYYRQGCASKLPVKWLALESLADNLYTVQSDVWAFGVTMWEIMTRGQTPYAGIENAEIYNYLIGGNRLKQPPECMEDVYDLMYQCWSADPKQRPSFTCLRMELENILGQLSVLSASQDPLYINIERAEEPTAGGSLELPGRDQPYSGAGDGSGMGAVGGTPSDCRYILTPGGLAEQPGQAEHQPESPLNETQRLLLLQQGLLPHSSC
Recorded measurements of inhibition, one per entry
Parameter measured: inhibition (%)

[[record]]
structure_string = "O=C(CN1C(=O)/C(=N\\NC(=O)c2cc(Br)ccc2O)c2c(Br)cccc21)Nc1ccc([N+](=O)[O-])cc1"
numeric_result = 46.4

[[record]]
structure_string = "Cc1ccc(NC(=O)CN2C(=O)/C(=N\\NC(=O)c3cc(Br)ccc3O)c3ccc(Br)cc32)cc1"
numeric_result = 39.3

[[record]]
structure_string = "Cc1ccc(NC(=O)CN2C(=O)/C(=N\\NC(=O)c3cc(Br)ccc3O)c3ccc(Cl)cc32)cc1"
numeric_result = 51.3

[[record]]
structure_string = "Cc1ccc(NC(=O)CN2C(=O)/C(=N\\NC(=O)c3cc(Br)ccc3O)c3ccccc32)cc1"
numeric_result = 48.5


----------
biological target: High affinity nerve growth factor receptor (Homo sapiens); test: Inhibition of human N-terminal GST-fused TRKA cytoplasmic domain (436 to 790 (end)residues) expressed in baculovirus expression system at 20 uM measured after 1 hr in presence of peptide substrate and ATP by off-chip mobility shift assay relative to control
# inhibition per record follows
Parameter measured: inhibition (%)

[[record]]
structure_string = "Cc1ccc(NC(=O)CN2C(=O)/C(=N\\NC(=O)c3cc(Br)ccc3O)c3ccc(Br)cc32)cc1"
readout_unit = "%"
numeric_result = 64.3

[[record]]
structure_string = "Cc1ccc(NC(=O)CN2C(=O)/C(=N\\NC(=O)c3cc(Br)ccc3O)c3ccc(Cl)cc32)cc1"
readout_unit = "%"
numeric_result = 66.9

[[record]]
structure_string = "Cc1ccc(NC(=O)CN2C(=O)/C(=N\\NC(=O)c3cc(Br)ccc3O)c3ccccc32)cc1"
readout_unit = "%"
numeric_result = 80

[[record]]
structure_string = "O=C(CN1C(=O)/C(=N\\NC(=O)c2cc(Br)ccc2O)c2c(Br)cccc21)Nc1ccc([N+](=O)[O-])cc1"
readout_unit = "%"
numeric_result = 65.9


----------
target: Epidermal growth factor receptor (Homo sapiens); experiment: Inhibition of human N-terminal GST-fused EGFR cytoplasmic domain (669 to 1210 (end)residues) expressed in baculovirus expression system at 20 uM measured after 1 hr in presence of peptide substrate and ATP by off-chip mobility shift assay relative to control
Measured inhibition, listed per entry for reference.
Parameter measured: inhibition (%)

[[record]]
structure_string = "Cc1ccc(NC(=O)CN2C(=O)/C(=N\\NC(=O)c3cc(Br)ccc3O)c3ccc(Cl)cc32)cc1"
numeric_result = 72.9

[[record]]
structure_string = "Cc1ccc(NC(=O)CN2C(=O)/C(=N\\NC(=O)c3cc(Br)ccc3O)c3ccc(Br)cc32)cc1"
numeric_result = 70.9

[[record]]
structure_string = "O=C(CN1C(=O)/C(=N\\NC(=O)c2cc(Br)ccc2O)c2c(Br)cccc21)Nc1ccc([N+](=O)[O-])cc1"
numeric_result = 69.3

[[record]]
structure_string = "Cc1ccc(NC(=O)CN2C(=O)/C(=N\\NC(=O)c3cc(Br)ccc3O)c3ccccc32)cc1"
numeric_result = 85.2

